Measured pIC50, listed per entry.
# TARGET: UniProt:P23743
# Sequence (P23743 other isoform, or with tags, fused parts or gaps): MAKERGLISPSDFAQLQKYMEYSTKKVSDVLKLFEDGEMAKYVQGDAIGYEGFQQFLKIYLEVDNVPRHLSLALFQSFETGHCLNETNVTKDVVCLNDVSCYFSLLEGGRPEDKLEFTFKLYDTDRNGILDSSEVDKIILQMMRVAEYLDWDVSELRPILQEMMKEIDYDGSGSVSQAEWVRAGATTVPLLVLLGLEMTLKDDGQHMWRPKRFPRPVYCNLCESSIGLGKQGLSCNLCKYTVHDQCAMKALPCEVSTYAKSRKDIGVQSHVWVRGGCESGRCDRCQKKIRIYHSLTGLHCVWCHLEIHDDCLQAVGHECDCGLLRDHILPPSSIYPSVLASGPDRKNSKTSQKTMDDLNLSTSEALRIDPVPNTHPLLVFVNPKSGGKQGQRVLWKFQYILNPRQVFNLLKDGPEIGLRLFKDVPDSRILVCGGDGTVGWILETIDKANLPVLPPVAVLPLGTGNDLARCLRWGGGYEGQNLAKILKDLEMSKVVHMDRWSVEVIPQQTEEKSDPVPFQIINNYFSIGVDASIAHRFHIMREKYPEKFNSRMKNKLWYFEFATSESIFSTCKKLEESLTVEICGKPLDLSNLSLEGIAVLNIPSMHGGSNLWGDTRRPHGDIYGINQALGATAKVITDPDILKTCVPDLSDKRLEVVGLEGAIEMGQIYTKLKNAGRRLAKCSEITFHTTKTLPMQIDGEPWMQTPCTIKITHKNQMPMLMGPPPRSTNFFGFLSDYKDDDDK
# PROTOCOL_TEXT: Human DGKα kinase activity inhibition assay (ADP-Glo)
# EXPERIMENTAL_PARAMETERS: recombinant full-length human DGKα, 55 μM ATP, 7 μM 1,2-dioleoyl-sn-glycerol, read-out: IC50 values of examples in in vitro human DGKa kinase activity inhibition assays
As a rule, pIC50 stands for the negative log10 of the concentration, concentration in M.

Below, each entry is followed by its recorded pIC50 result.
# ENTRY_SMILES, TARGET, pIC50
data = [
    ("Cc1ccc2oc(C3CCN(c4c(C#N)c(=O)n(C)c5cc(OC6COC6)ccc45)CC3)nc2c1", "UniProt:P23743", 9.05),
    ("Cc1ccc(-c2nnc(C3CCN(c4c(C#N)c(=O)n(C)c5ccccc45)CC3)o2)cc1", "UniProt:P23743", 6.95),
    ("Cc1cc(C2(C)CCN(c3c(C#N)c(=O)n(C)c4ccccc34)CC2)nc2ccccc12", "UniProt:P23743", 7.47),
]

Field: next compound
In plain terms, Cc1ccc2oc(C3(C)CCN(c4c(C(N)=O)c(=O)n(C)c5ccc(C#N)cc45)CC3)nc2c1 has a documented pIC50 of 8.47

Reference source for all entries: patent US11998539B2
